Assignment: determine reported Non Amp - AMP (POC) 10 uM for the given compounds.
- Tested on: ovarian cancer cells with (OVCAR8, OVCAR4) or without (OVSAHO, CAOV3) MYC-HSF1 amplification
- experiment: Epigenetic inhibitor drug screen, cell viability (Cell Titer Blue)
- Format: cell-based
- measurement-conditions: 10 uM, 48 hrs; average relative cell viability (vs 1% DMSO) of non-amplified cells (OVSAHO, CAOV3) minus that of MYC-HSF1 amplified cells (OVCAR8, OVCAR4); positive = greater response in amplified cells
Structures can show the parent of a compound that is named as a salt.
Numbers only, in POC.

c1cc(-c2cnn3cc(-c4ccc(OCCN5CCCCC5)cc4)cnc23)ccn1	7.913
COc1cc(C#N)ccc1S(=O)(=O)Nc1ccc2c(c1)cc(C)c(=O)n2C	11.2
Cn1cc(C2=C(c3cn(C4CCN(Cc5ccccn5)CC4)c4ccccc34)C(=O)NC2=O)c2ccccc21	13.08

For each of the compounds below, state Non Amp - AMP (POC) 10 uM.
1. N#Cc1ccc(-c2csc(NN=C3CCCC3)n2)cc1
2. Cc1nc(-c2cccnc2)sc1C(=O)Nc1ccccc1-c1cn2c(CN3CCOCC3)csc2n1
3. CS(=O)(=O)c1ccc(-c2nnc(/C=C/c3nnc(-c4ccc(C#N)cc4)o3)n2-c2ccccc2Cl)nc1
4. O=C(NCC1(c2nc(-c3ccccc3)cs2)CCOCC1)c1cccc(-c2noc(C(F)(F)F)n2)c1

1: 13.34; 2: −1.9; 3: −1.13; 4: 16.29

Would you mind giving Non Amp - AMP (POC) 10 uM for every compound in the list below?
1. O=S(=O)(c1cccc2cnccc12)N1CCCNCC1 [Fasudil (HA-1077) HCl, Fasudil]
2. O=[N+]([O-])c1ccc(Sc2cccc[n+]2[O-])c2nonc12
3. COc1ccc(S(=O)(=O)ON=C2C=C(C)C(=O)C(C)=C2)cc1
4. CN1CCN(c2nc(C3=C(c4c[nH]c5ccccc45)C(=O)NC3=O)c3ccccc3n2)CC1

[15.8, 4.767, "−39.83", 10.63]

Look at each compound and report its Non Amp - AMP (POC) 10 uM.
1. O=c1ccc2ccccc2o1
2. CCn1c(C(=O)N(C2CC2)C2CC2)cc2c3c(ncn3C)c(Nc3cc(C)n(C)n3)nc21
3. O=C(O)[C@]1(Cc2cccc(Nc3nccs3)n2)CC[C@@H](Oc2cccc(Cl)c2F)CC1
4. N.N.O=C([O-])C1(C(=O)[O-])CCC1.[Pt+2]
5. O=C(CCCCCCNC(=O)c1cnc(N(c2ccccc2)c2ccccc2)nc1)NO

1: 5.809; 2: 1.85; 3: 0.08992; 4: −13.46; 5: 32.23

---

- Tested on: ovarian cancer cells with (OVCAR8, OVCAR4) or without (OVSAHO, CAOV3) MYC-HSF1 amplification
- experiment: Epigenetic inhibitor drug screen, cell viability (Cell Titer Blue)
- Type: cell-based
- measurement-conditions: 10 uM, 48 hrs; average relative cell viability (vs 1% DMSO) of non-amplified cells (OVSAHO, CAOV3) minus that of MYC-HSF1 amplified cells (OVCAR8, OVCAR4); positive = greater response in amplified cells
Recorded Non Amp - AMP (POC) 10 uM split into classes one (below -4 POC), two (-4 POC to below 5 POC), three (5 POC or more)

Cn1ncnc1C1c2n[nH]c(=O)c3cc(F)cc(c23)NC1c1ccc(F)cc1 (centres unmarked)	two
N#Cc1c(Oc2ccc(F)c(NC(=O)Cc3cccc(C(F)(F)F)c3)c2)ccc2nc(NC(=O)C3CC3)sc12	one
Cc1csc(-c2nnc(Nc3ccc(Oc4ncccc4-c4ccnc(N)n4)cc3)c3ccccc23)c1	two

Just checking, what class would you give "C#Cc1cccc(Nc2ncnc3cc(OC)c(OCCCCCCC(=O)NO)cc23)c1" here? three

Class label required: "CC(C)[C@H](C(=O)Nc1ccc(C(=O)NO)cc1)c1ccccc1" one

Classify this molecule: "C=C(C)[C@@H](CC=C(C)C)C[C@@]12C[C@@H](CC=C(C)C)C(C)(C)[C@@](CC=C(C)C)(C(=O)C(C(=O)c3ccc(O)c(O)c3)=C1O)C2=O" three

Lab note: which band did O=C([O-])CCCc1ccccc1.[Na+] [Sodium 4-phenylbutyrate] land in? three

Category lookup for the molecule "CC(C)N(CCCNC(=O)Nc1ccc(C(C)(C)C)cc1)C[C@H]1O[C@@H](n2cc(Br)c3c(N)ncnc32)[C@H](O)[C@@H]1O" two

// return the class label for "COC1CCN(C(=O)c2cc(Cc3n[nH]c(=O)c4ccccc34)ccc2F)CC1" three

State the band of "Cc1cn(CCN2CCN(c3ccccc3-c3cc(C#N)cc(C(=O)NCCCN4CCCC4)c3)CC2)c2ccccc12" one

Where would "O=C(Nn1nnc2ccccc21)c1ccc(Cl)cc1Cl" land among the classes by reported Non Amp - AMP (POC) 10 uM? three

// bin(item) where item = "CCCCC[C@H](O)CC(=O)CCc1ccc(O)c(OC)c1" one

Sort into band: "CN1CCCN(C(=O)c2cccc(-c3ccc(/C=C4/C(=O)Nc5ccc(Cl)cc54)o3)c2)CC1" one

# bin lookup: classify CNCCN1CCC(OCc2ccccc2)CC1.Cl.Cl [MS049 (hydrochloride)] by its Non Amp - AMP (POC) 10 uM two

Class label required: "Cn1cc(-c2ccc(S(=O)(=O)n3ccc(/C=C/C(=O)Nc4ccccc4N)c3)cc2)cn1" three

---

- System: ovarian cancer cells with (OVCAR8, OVCAR4) or without (OVSAHO, CAOV3) MYC-HSF1 amplification
- experiment: Epigenetic inhibitor drug screen, cell viability (Cell Titer Blue)
- Type: cell-based
- measurement-conditions: 10 uM, 48 hrs; average relative cell viability (vs 1% DMSO) of non-amplified cells (OVSAHO, CAOV3) minus that of MYC-HSF1 amplified cells (OVCAR8, OVCAR4); positive = greater response in amplified cells
Where a name gives a salt, the structure may show the parent alone.
Classes (Non Amp - AMP (POC) 10 uM): interval 1 = under 0.6 POC, interval 2 = from 0.6 POC up to 10 POC, interval 3 = 10 POC and over

O=C(CCl)Nc1ccc(S(=O)(=O)c2ccc(NC(=O)CCl)cc2)cc1	interval 2

Kindly state the category for this molecule: "c1nc2nc(Nc3ccc(N4CCOCC4)cc3)nc(NC3CCCCC3)c2[nH]1" interval 1

# bin lookup: classify CNNCc1ccc(C(=O)NC(C)C)cc1 [Procarbazine HCl] by its Non Amp - AMP (POC) 10 uM interval 2

Form: Item = "CC(=O)SCC(=O)c1ccc(NS(=O)(=O)c2ccc(OCCCN(C)C)cc2)nc1" ; Class = ? interval 3

Which category fits this record: CCCCCCCCOC(=O)C(O)CCC(=O)O (stereo not drawn) [Octyl-a-hydroxyglutarate] interval 1

Into which bin does this molecule go? "Cc1nc(N)sc1-c1ccnc(Nc2ccc(N3CCOCC3)cc2)n1" interval 2

Hello team, could you let me know which band the following molecule falls into: "NC(=O)c1cccc(NC(=O)/C=C/c2c[nH]c3ccccc23)c1" interval 3

In plain terms, what class is CC(C)N(CCC(=O)c1ccc2ccccc2c1)Cc1ccccc1 [ZM 39923 HCl] ? interval 1

Hey, which category is "CCS(=O)(=O)c1cccc(-c2cc(C(=O)NC3CCN(C)CC3)c(C)c3[nH]c4ncc(C)cc4c23)c1" in, do you know? interval 2

Classify this molecule: "CN(C)c1ccc(C(=O)NCCCCCC(=O)NO)cc1" interval 3

Please indicate the class for "N#C/C(=C/c1ccc(O)c(O)c1)C(=O)NCc1ccccc1" based on its Non Amp - AMP (POC) 10 uM. interval 1

---

Please provide measured Non Amp - AMP (POC) 10 uM for the entries that follow.
- Test system: ovarian cancer cells with (OVCAR8, OVCAR4) or without (OVSAHO, CAOV3) MYC-HSF1 amplification
- experiment: Epigenetic inhibitor drug screen, cell viability (Cell Titer Blue)
- Format: cell-based
- measurement-conditions: 10 uM, 48 hrs; average relative cell viability (vs 1% DMSO) of non-amplified cells (OVSAHO, CAOV3) minus that of MYC-HSF1 amplified cells (OVCAR8, OVCAR4); positive = greater response in amplified cells; 10 µM
Structures can show the parent of a compound that is named as a salt.
Kindly write the number and append the unit.

Batch of 6 molecules: report Non Amp - AMP (POC) 10 uM for each.
1. O=C(O)c1ccnc(C(=O)O)c1 [2,4-Pyridinedicarboxylic Acid (hydrate), 2,4-Pyridinedicarboxylic Acid]
2. Nc1ccn([C@@H]2O[C@H](CO)[C@@H](O)C2(F)F)c(=O)n1
3. O=C(/C=C/N1C[C@H]2C[C@@H]1CN2c1ccccn1)c1ccccc1O
4. N#C/C(=C\c1ccc(-c2cc(Cl)ccc2Cl)o1)C(=O)Nc1cccc2ncccc12
5. Cc1[nH]c2ccccc2c1CCNCc1ccc(/C=C/C(=O)NO)cc1
6. CCCCc1nc2cc(/C=C/C(=O)NO)ccc2n1CCN(CC)CC

1: 10.85 POC; 2: 28.61 POC; 3: 12.92 POC; 4: 24.17 POC; 5: 41.46 POC; 6: 42.19 POC

Provide reported Non Amp - AMP (POC) 10 uM for each item, in the same order as listed.
1. Fc1cc(-c2cccc3ncc(-c4cnn(C5CCNCC5)c4)nc23)cc(F)c1CN1CCOCC1 [NVP-BSK805]
2. Cn1c(/C=C/C(=O)NO)ccc1/C=C/C(=O)c1cccc(F)c1
3. CNCc1ccc(-c2[nH]c3cc(F)cc4c3c2CCNC4=O)cc1 [Rucaparib (free base), Rucaparib]
4. CCCCNNC(=O)c1ccc(Br)cc1
5. CN(C)CCCNC(=O)c1ccc(-c2cc(O)c3ncccc3c2)cc1

["−1.371 POC", "−4.947 POC", "8.811 POC", "54.18 POC", "7.484 POC"]

Please state Non Amp - AMP (POC) 10 uM for every molecule in the list that follows.
1. Nc1ccccc1NC(=O)c1ccc(CNc2nccc(-c3cccnc3)n2)cc1
2. COc1ccc2c(c[n+](C)c3c4cc5c(cc4ccc23)OCO5)c1OC [Chelerythrine Chloride]
3. CCN(CC)Cc1ccc2cc(COC(=O)Nc3ccc(C(=O)NO)cc3)ccc2c1
4. COc1ccccc1C(=O)Nc1cc2c(cc1N1CCCC1)n(C)c(=O)n2C
5. N[C@@H]1C[C@H]1c1ccccc1 (racemic) [Tranylcypromine (hydrochloride), Tranylcypromine]
6. Nc1nc2nc[nH]c2c(=S)[nH]1 [Thioguanine]
7. O=Nc1ccc(O)c2ncccc12 [5-Nitroso-8-quinolinol]

49.31 POC
−21.5 POC
40.35 POC
17.43 POC
0.7437 POC
9.104 POC
9.462 POC

Hi! Can you tell me Non Amp - AMP (POC) 10 uM for each of these molecules?
1. CNCc1ccc(-c2[nH]c3cc(F)cc4c3c2CCNC4=O)cc1 [Rucaparib (AG-014699, PF-01367338), Rucaparib]
2. Nc1nccc2c1ncn2[C@@H]1C=C(CO)[C@@H](O)[C@H]1O [3-Deazaneplanocin A]
3. CCCc1cc2c(N3CCN(C4=NCC(C)(C)S4)CC3)ncnc2s1 [MI-2]
4. COc1ccc2c(c[n+](C)c3c4cc5c(cc4ccc23)OCO5)c1OC [Chelerythrine]
5. O=C(CCCCCCC(=O)Nc1ccccc1)NO [Vorinostat (SAHA, MK0683), Vorinostat]

1: 0.4948 POC; 2: 28.52 POC; 3: 8.542 POC; 4: −18.62 POC; 5: 37.32 POC

Give measured Non Amp - AMP (POC) 10 uM for every item shown.
1. Cc1sc2c(c1C)C(c1ccc(Cl)cc1)=N[C@@H](CC(=O)Nc1ccc(O)cc1)c1nnc(C)n1-2
2. CCOC(=O)NCCCC(=O)NCCc1ccccc1 [CAY10683, Santacruzamate A]

1: 15.65 POC; 2: 18.98 POC
